- measured target: C1s (Homo sapiens)
- assay method text: anti-C1 esterase (C1s) activity (hydrolysis of ATEE)
- Assay type: biochemical
- condition notes: at 1×10^-5 M; figure in parentheses; read-out: percent inhibition C1s
measured parameter: inhibition at 10 µM (%)
Return type: number; implicit unit %.

Reported inhibition at 10 µM for N=C(N)c1ccc2cc(OC(=O)C=Cc3cccnc3)ccc2c1 : what is it?
18

Would you mind doing N=C(N)c1ccc2cc(OC(=O)c3ccc([N+](=O)[O-])o3)ccc2c1 as well?
28

Would you mind doing CN1c2ccccc2Sc2ccc(CC(=O)Oc3ccc4cc(C(=N)N)ccc4c3)cc21 as well?
16

Would you mind doing N=C(N)c1ccc2cc(OC(=O)c3ccccn3)ccc2c1 as well?
20

---

- measured target: Thrombin (Homo sapiens)
- assay method text: biochemical
- condition notes: read-out: ID50 Thrombin
Please provide measured IC50 for the entries that follow.

Reported IC50 for Cc1ccc(C(=O)Oc2ccc3cc(C(=N)N)ccc3c2)s1 : what is it?
3 µM

Would you mind doing CN1c2ccccc2Sc2ccc(CC(=O)Oc3ccc4cc(C(=N)N)ccc4c3)cc21 as well?
3 µM

---

- measured target: C1s (Homo sapiens, UniProt P09871)
- Sequence (P09871 438-688 limits assumed): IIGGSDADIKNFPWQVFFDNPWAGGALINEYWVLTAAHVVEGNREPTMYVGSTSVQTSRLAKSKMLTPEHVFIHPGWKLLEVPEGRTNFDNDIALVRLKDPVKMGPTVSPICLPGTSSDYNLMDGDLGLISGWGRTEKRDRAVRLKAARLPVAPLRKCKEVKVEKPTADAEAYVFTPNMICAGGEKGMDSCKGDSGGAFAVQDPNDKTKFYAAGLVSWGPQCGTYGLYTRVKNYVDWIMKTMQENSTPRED
- Sequence (P09871 16-437 limits assumed): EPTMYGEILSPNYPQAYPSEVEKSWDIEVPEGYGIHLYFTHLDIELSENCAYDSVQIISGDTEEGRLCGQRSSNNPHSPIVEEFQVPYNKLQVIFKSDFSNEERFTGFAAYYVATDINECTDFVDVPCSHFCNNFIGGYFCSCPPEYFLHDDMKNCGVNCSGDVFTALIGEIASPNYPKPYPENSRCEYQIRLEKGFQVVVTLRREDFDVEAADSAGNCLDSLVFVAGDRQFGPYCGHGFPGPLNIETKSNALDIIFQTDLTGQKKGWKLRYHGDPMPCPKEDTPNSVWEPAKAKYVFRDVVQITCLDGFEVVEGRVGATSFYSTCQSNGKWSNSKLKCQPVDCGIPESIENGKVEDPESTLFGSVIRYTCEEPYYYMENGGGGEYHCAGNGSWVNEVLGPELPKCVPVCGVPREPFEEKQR
Please provide measured pIC50 for the entries that follow.
Value format note: pIC50 is -log10 of concentration (mol/L); just state the number.

Reported pIC50 for N=C(N)c1ccc2cc(OC(=O)C=Cc3c[nH]c4ccccc34)ccc2c1 : what is it?
6.22

Would you mind doing N=C(N)c1ccc2cc(OC(=O)C3CCN(C(=O)OCc4ccccc4)CC3)ccc2c1 as well?
6.40

Would you mind doing N=C(N)c1ccc2cc(OC(=O)C3CCNCC3)ccc2c1 as well?
5.15

Would you mind doing COc1ccc2[nH]c(C(=O)Oc3ccc4cc(C(=N)N)ccc4c3)cc2c1 as well?
5.70

Would you mind doing COc1ccc(C(=O)Oc2ccc3cc(C(=N)N)ccc3c2)o1 as well?
6.70

---

- measured target: Trypsin (Bos taurus)
- Sequence (P00760 24-246): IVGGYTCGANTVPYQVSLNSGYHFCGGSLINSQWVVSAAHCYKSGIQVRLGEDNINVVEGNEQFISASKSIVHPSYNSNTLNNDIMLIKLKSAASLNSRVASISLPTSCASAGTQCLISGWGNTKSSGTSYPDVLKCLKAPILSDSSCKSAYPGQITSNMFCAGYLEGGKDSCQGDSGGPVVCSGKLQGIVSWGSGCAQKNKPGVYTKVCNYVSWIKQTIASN
measured parameter: log10 IC50 (log10 of the value in nM)
All values: base-10 log of IC50 in nM.

Reported log10 IC50 for N=C(N)c1ccc2cc(OC(=O)C=Cc3c[nH]c4ccccc34)ccc2c1 [compound 38] : what is it?
3.95

Would you mind doing N=C(N)Nc1ccc(CCc2ccc(C(=O)Oc3ccc4cc(C(=N)N)ccc4c3)o2)cc1 [compound 2] as well?
2.30

Would you mind doing COc1ccc2oc(C(=O)Oc3ccc4cc(C(=N)N)ccc4c3)cc2c1 [compound 17] as well?
3.48

Would you mind doing COc1ccc(C(=O)Oc2ccc3cc(C(=N)N)ccc3c2)o1 [Compound No. 1] as well?
1.00

Would you mind doing N=C(N)c1ccc2cc(OC(=O)C=Cc3ccco3)ccc2c1 [compound 14] as well?
3.00

Would you mind doing N=C(N)c1ccc2cc(OC(=O)C3CCN(C(=O)OCc4ccccc4)CC3)ccc2c1 [compound 55] as well?
1.78

Would you mind doing CC(=O)OCc1ccc(C(=O)Oc2ccc3cc(C(=N)N)ccc3c2)o1 [compound 9] as well?
2.70

Would you mind doing CN1c2ccccc2Sc2ccc(CC(=O)Oc3ccc4cc(C(=N)N)ccc4c3)cc21 [compound 61] as well?
3.48

Would you mind doing N=C(N)c1ccc2cc(OC(=O)c3ccc[nH]3)ccc2c1 [compound 28] as well?
3.78

Would you mind doing N=C(N)c1ccc2cc(OC(=O)c3cc4ccccc4o3)ccc2c1 [compound 16] as well?
3.30

Would you mind doing N=C(N)c1ccc2cc(OC(=O)c3ccoc3)ccc2c1 [compound 4] as well?
3.30

---

- assay method text: Toxicity: median lethal dose (LD50)
- condition notes: in vivo, po; mouse, P.O.
measured parameter: LD50

Reported LD50 for COc1ccc(C(=O)Oc2ccc3cc(C(=N)N)ccc3c2)o1 [Compound No. 1] : what is it?
2500 mg/kg

---

- measured target: C1r (Homo sapiens, UniProt P00736)
- Sequence (P00736 464-705 limits assumed): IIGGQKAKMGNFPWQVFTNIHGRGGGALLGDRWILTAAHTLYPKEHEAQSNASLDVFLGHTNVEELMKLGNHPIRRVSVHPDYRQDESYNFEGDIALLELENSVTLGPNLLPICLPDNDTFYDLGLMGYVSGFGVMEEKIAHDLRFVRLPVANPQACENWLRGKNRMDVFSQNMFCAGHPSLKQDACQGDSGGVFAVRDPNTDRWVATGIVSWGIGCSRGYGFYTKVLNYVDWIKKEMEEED
- Sequence (P00736 18-463 limits assumed): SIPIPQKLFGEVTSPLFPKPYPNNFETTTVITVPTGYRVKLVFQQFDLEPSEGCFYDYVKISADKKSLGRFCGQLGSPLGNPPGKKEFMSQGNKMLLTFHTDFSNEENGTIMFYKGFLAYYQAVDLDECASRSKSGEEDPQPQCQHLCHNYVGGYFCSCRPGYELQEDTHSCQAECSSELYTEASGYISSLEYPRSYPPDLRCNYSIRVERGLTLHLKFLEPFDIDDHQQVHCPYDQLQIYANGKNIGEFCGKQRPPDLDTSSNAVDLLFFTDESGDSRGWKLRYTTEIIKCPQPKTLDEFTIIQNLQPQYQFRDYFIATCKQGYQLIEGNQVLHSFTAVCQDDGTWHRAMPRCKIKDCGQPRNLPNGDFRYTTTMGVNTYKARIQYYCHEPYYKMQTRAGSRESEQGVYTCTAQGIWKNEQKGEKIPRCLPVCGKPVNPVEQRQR
measured parameter: IC50 (nM)
Return type: number; implicit unit nM.

Reported IC50 for COc1ccc(C(=O)Oc2ccc3cc(C(=N)N)ccc3c2)o1 : what is it?
60

Would you mind doing CSCc1ccc(C(=O)Oc2ccc3cc(C(=N)N)ccc3c2)o1 as well?
200

Would you mind doing N=C(N)c1ccc2cc(OC(=O)C=Cc3cccnc3)ccc2c1 as well?
5000

---

Entries below carry reported log10 of IC50 on Plasmin (Homo sapiens, UniProt P00747).
Sequence (P00747 581-810 limits assumed, species assumed): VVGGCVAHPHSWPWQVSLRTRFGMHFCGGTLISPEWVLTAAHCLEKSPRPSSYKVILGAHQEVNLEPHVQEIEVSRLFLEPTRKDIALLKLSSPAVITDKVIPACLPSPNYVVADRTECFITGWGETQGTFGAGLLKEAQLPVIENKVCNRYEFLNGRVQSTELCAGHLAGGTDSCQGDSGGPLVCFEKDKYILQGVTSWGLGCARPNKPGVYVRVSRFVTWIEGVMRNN
Sequence (P00747 97-580 limits assumed, species assumed): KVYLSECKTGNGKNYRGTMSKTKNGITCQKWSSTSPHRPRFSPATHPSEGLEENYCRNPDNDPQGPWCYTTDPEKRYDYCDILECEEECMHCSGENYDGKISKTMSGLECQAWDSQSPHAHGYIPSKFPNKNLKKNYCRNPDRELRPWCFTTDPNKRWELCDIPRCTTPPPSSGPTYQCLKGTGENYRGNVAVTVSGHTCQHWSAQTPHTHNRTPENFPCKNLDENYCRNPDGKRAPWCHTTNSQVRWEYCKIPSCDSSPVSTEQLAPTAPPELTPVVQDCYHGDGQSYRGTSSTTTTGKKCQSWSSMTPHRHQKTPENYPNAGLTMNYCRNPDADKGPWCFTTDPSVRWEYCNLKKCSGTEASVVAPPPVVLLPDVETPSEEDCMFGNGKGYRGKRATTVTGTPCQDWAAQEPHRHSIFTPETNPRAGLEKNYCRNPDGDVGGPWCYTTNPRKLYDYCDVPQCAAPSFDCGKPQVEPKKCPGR
All values: base-10 log of IC50 in µM.

Reported log10 of IC50 for COc1ccc2[nH]c(C(=O)Oc3ccc4cc(C(=N)N)ccc4c3)cc2c1 [compound 33] : what is it?
0.30

Would you mind doing N=C(N)c1ccc2cc(OC(=O)c3ccc(Cn4ccnc4)cc3)ccc2c1 [compound 42] as well?
0.30

Would you mind doing N=C(N)c1ccc2cc(OC(=O)c3ccc(COCc4ccccc4)o3)ccc2c1 [compound 7] as well?
0.48

Would you mind doing N=C(N)c1ccc2cc(OC(=O)c3ccoc3)ccc2c1 [compound 4] as well?
0.00

Would you mind doing COc1ccc2oc(C(=O)Oc3ccc4cc(C(=N)N)ccc4c3)cc2c1 [compound 17] as well?
0.48

Would you mind doing N=C(N)c1ccc2cc(OC(=O)C3CCN(C(=O)OCc4ccccc4)CC3)ccc2c1 [compound 55] as well?
0.48

Would you mind doing COc1ccc(C(=O)Oc2ccc3cc(C(=N)N)ccc3c2)o1 [Compound No. 1] as well?
-0.40

Would you mind doing Cc1ccc(C(=O)Oc2ccc3cc(C(=N)N)ccc3c2)s1 [compound 23] as well?
-0.52

Would you mind doing N=C(N)c1ccc2cc(OC(=O)c3ccccn3)ccc2c1 [compound 45] as well?
0.85

Would you mind doing N=C(N)c1ccc2cc(OC(=O)C=Cc3ccco3)ccc2c1 [compound 14] as well?
-0.52

Would you mind doing N=C(N)c1ccc2cc(OC(=O)c3cc4ccccc4o3)ccc2c1 [compound 16] as well?
0.48

Would you mind doing N=C(N)c1ccc2cc(OC(=O)C=Cc3c[nH]c4ccccc34)ccc2c1 [compound 38] as well?
-0.10

Would you mind doing N=C(N)c1ccc2cc(OC(=O)c3ccc(CO)o3)ccc2c1 [compound 8] as well?
0.30

Would you mind doing N=C(N)c1ccc2cc(OC(=O)c3cccs3)ccc2c1 [compound 22] as well?
-0.52

Would you mind doing CC(=O)OCc1ccc(C(=O)Oc2ccc3cc(C(=N)N)ccc3c2)o1 [compound 9] as well?
-0.05
